Target: T1, HLA-DR molecule DRB1*0701 (human)
T1 chain 1: not shown
T1 chain 2: not shown
Test: radioligand inhibition, purified HLA-DR
Settings: remark: other sources report otherwise
pIC50: −log10 of the molar value.
parameter: pIC50

- binder: "ERGPLEHLYSLHIPN [Peptide 9019.0190 (IGFBP2.249)]"
  readout.number: 7.74
- binder: "HNQVRQVPLQRLRIV [Peptide 9019.0034 (Her2/neu.88)]"
  readout.number: 7.10
